Exercise: for every item that follows, state its recorded Solubility.
- PROTOCOL: Aqueous solubility
- Format: physicochemical
- CONDITION_DESCRIPTION: aqueous; * = calculations made from two determinations
- Source text: Solubility as employed herein is used generically to refer to a distribution of a compound of formula (I) in a solvent (for example water, saline or an aqueous isotonic solution such as glucose) such that the formulation/composition resulting therefrom is substantially free of visible aggregates and for example is substantially transparent when viewed by the naked eye. […]
Counter-ions that a name gives are not always drawn.
Numbers only, in mg/mL.

Consider the molecule shown here: CC[C@H](C)[C@@H]1NC(=O)[C@@H]2NC(=O)[C@H](CC(C)C)NC(=O)[C@H](NC(=O)[C@@H]3CSC[C@@H](N)C(=O)N[C@@H](CO)C(=O)NCC(=O)N[C@@H](Cc4c[nH]c5ccccc45)C(=O)N[C@@H](C(C)C)C(=O)N3)[C@H](C)SC[C@H](NC(=O)[C@H](CCC(=O)O)NC1=O)C(=O)NCC(=O)N[C@H]1C(=O)N[C@@H](CC(C)C)C(=O)N[C@@H](C(C)C)C(=O)N[C@@H](CS[C@H]2C)C(=O)N[C@@H](C)C(=O)N[C@H](C(=O)NCc2cc(Cl)cc(Cl)c2)CS[C@H]1C [triethanolamine salt] What is its recorded Solubility? 1.04

As a next step, examine the molecule that follows.
Need Solubility, item CC[C@H](C)[C@@H]1NC(=O)[C@@H]2NC(=O)[C@H](CC(C)C)NC(=O)[C@H](NC(=O)[C@@H]3CSC[C@@H](N)C(=O)N[C@@H](CO)C(=O)NCC(=O)N[C@@H](Cc4c[nH]c5ccccc45)C(=O)N[C@@H](C(C)C)C(=O)N3)[C@H](C)SC[C@H](NC(=O)[C@H](CCC(=O)O)NC1=O)C(=O)NCC(=O)N[C@H]1C(=O)N[C@@H](CC(C)C)C(=O)N[C@@H](C(C)C)C(=O)N[C@@H](CS[C@H]2C)C(=O)N[C@@H](C)C(=O)N[C@H](C(=O)NCc2cc(Cl)cc(Cl)c2)CS[C@H]1C [tromethamine salt] 2.38

====

- PROTOCOL: In vivo plasma half-life in mice
- CONDITION_DESCRIPTION: male, mouse, 29.76 mg/kg; CD-1 mice, IV dose of Example 1 (9.3 mL/Kg of 3.2 mg/mL solution); Compound 1 in plasma by LC-MS
VALUE_KIND: half-life

Report half-life for CCC(C)[C@@H]1NC(=O)[C@@H]2NC(=O)[C@H](CC(C)C)NC(=O)[C@H](NC(=O)[C@H]3CSC[C@H](N)C(=O)N[C@@H](CO)C(=O)NCC(=O)N[C@@H](Cc4c[nH]c5ccccc45)C(=O)N[C@@H](C(C)C)C(=O)N3)[C@H](C)SC[C@H](NC(=O)[C@H](CCC(=O)O)NC1=O)C(=O)NCC(=O)N[C@@H]1C(=O)N[C@@H](CC(C)C)C(=O)N[C@@H](C(C)C)C(=O)N[C@@H](CS[C@H]2C)C(=O)N[C@@H](C)C(=O)N[C@H](C(=O)NCc2cc(Cl)cc(Cl)c2)CS[C@H]1C (stereo partly shown) please. ~120 min

====

Could you please report measured pH of saturated solution for the items listed next?
- PROTOCOL: Aqueous solubility
- Format: physicochemical
- CONDITION_DESCRIPTION: aqueous saturated solution
Where a name gives a salt, the structure may show the parent alone.
Answers are plain numbers.

Query (compound): CC[C@H](C)[C@@H]1NC(=O)[C@@H]2NC(=O)[C@H](CC(C)C)NC(=O)[C@H](NC(=O)[C@@H]3CSC[C@@H](N)C(=O)N[C@@H](CO)C(=O)NCC(=O)N[C@@H](Cc4c[nH]c5ccccc45)C(=O)N[C@@H](C(C)C)C(=O)N3)[C@H](C)SC[C@H](NC(=O)[C@H](CCC(=O)O)NC1=O)C(=O)NCC(=O)N[C@H]1C(=O)N[C@@H](CC(C)C)C(=O)N[C@@H](C(C)C)C(=O)N[C@@H](CS[C@H]2C)C(=O)N[C@@H](C)C(=O)N[C@H](C(=O)NCc2cc(Cl)cc(Cl)c2)CS[C@H]1C [diethanolamine salt] ; field requested: pH of saturated solution 8.78

Consider the record given below.
Any idea what its pH of saturated solution is? The compound is CC[C@H](C)[C@@H]1NC(=O)[C@@H]2NC(=O)[C@H](CC(C)C)NC(=O)[C@H](NC(=O)[C@@H]3CSC[C@@H](N)C(=O)N[C@@H](CO)C(=O)NCC(=O)N[C@@H](Cc4c[nH]c5ccccc45)C(=O)N[C@@H](C(C)C)C(=O)N3)[C@H](C)SC[C@H](NC(=O)[C@H](CCC(=O)O)NC1=O)C(=O)NCC(=O)N[C@H]1C(=O)N[C@@H](CC(C)C)C(=O)N[C@@H](C(C)C)C(=O)N[C@@H](CS[C@H]2C)C(=O)N[C@@H](C)C(=O)N[C@H](C(=O)NCc2cc(Cl)cc(Cl)c2)CS[C@H]1C [tromethamine salt] 8.53

====

- PROTOCOL: Aqueous solubility
- Assay type: physicochemical
- CONDITION_DESCRIPTION: aqueous saturated solution
Counter-ions that a name gives are not always drawn.
VALUE_KIND: pH of saturated solution
Numbers only.

Could you share which pH of saturated solution value was measured for CC[C@H](C)[C@@H]1NC(=O)[C@@H]2NC(=O)[C@H](CC(C)C)NC(=O)[C@H](NC(=O)[C@@H]3CSC[C@@H](N)C(=O)N[C@@H](CO)C(=O)NCC(=O)N[C@@H](Cc4c[nH]c5ccccc45)C(=O)N[C@@H](C(C)C)C(=O)N3)[C@H](C)SC[C@H](NC(=O)[C@H](CCC(=O)O)NC1=O)C(=O)NCC(=O)N[C@H]1C(=O)N[C@@H](CC(C)C)C(=O)N[C@@H](C(C)C)C(=O)N[C@@H](CS[C@H]2C)C(=O)N[C@@H](C)C(=O)N[C@H](C(=O)NCc2cc(Cl)cc(Cl)c2)CS[C@H]1C [ethanolamine salt] ? 8.74

Consider the compound CC[C@H](C)[C@@H]1NC(=O)[C@@H]2NC(=O)[C@H](CC(C)C)NC(=O)[C@H](NC(=O)[C@@H]3CSC[C@@H](N)C(=O)N[C@@H](CO)C(=O)NCC(=O)N[C@@H](Cc4c[nH]c5ccccc45)C(=O)N[C@@H](C(C)C)C(=O)N3)[C@H](C)SC[C@H](NC(=O)[C@H](CCC(=O)O)NC1=O)C(=O)NCC(=O)N[C@H]1C(=O)N[C@@H](CC(C)C)C(=O)N[C@@H](C(C)C)C(=O)N[C@@H](CS[C@H]2C)C(=O)N[C@@H](C)C(=O)N[C@H](C(=O)NCc2cc(Cl)cc(Cl)c2)CS[C@H]1C [triethanolamine salt] and give its measured pH of saturated solution. 8.43

Continuing:
Sample CC[C@H](C)[C@@H]1NC(=O)[C@@H]2NC(=O)[C@H](CC(C)C)NC(=O)[C@H](NC(=O)[C@@H]3CSC[C@@H](N)C(=O)N[C@@H](CO)C(=O)NCC(=O)N[C@@H](Cc4c[nH]c5ccccc45)C(=O)N[C@@H](C(C)C)C(=O)N3)[C@H](C)SC[C@H](NC(=O)[C@H](CCC(=O)O)NC1=O)C(=O)NCC(=O)N[C@H]1C(=O)N[C@@H](CC(C)C)C(=O)N[C@@H](C(C)C)C(=O)N[C@@H](CS[C@H]2C)C(=O)N[C@@H](C)C(=O)N[C@H](C(=O)NCc2cc(Cl)cc(Cl)c2)CS[C@H]1C [N-ethyl-D-glucamine salt] — what was its pH of saturated solution? 8.43

====

- PROTOCOL: Aqueous solubility
- Type: physicochemical
- CONDITION_DESCRIPTION: aqueous; * = calculations made from two determinations
Where a name gives a salt, the structure may show the parent alone.
VALUE_KIND: Solubility

Worked set:
Param item = CC[C@H](C)[C@@H]1NC(=O)[C@@H]2NC(=O)[C@H](CC(C)C)NC(=O)[C@H](NC(=O)[C@@H]3CSC[C@@H](N)C(=O)N[C@@H](CO)C(=O)NCC(=O)N[C@@H](Cc4c[nH]c5ccccc45)C(=O)N[C@@H](C(C)C)C(=O)N3)[C@H](C)SC[C@H](NC(=O)[C@H](CCC(=O)O)NC1=O)C(=O)NCC(=O)N[C@H]1C(=O)N[C@@H](CC(C)C)C(=O)N[C@@H](C(C)C)C(=O)N[C@@H](CS[C@H]2C)C(=O)N[C@@H](C)C(=O)N[C@H](C(=O)NCc2cc(Cl)cc(Cl)c2)CS[C@H]1C [N-ethyl-D-glucamine salt] ; retrieve measured Solubility. 11.16* mg/mL

Given the molecule CC[C@H](C)[C@@H]1NC(=O)[C@@H]2NC(=O)[C@H](CC(C)C)NC(=O)[C@H](NC(=O)[C@@H]3CSC[C@@H](N)C(=O)N[C@@H](CO)C(=O)NCC(=O)N[C@@H](Cc4c[nH]c5ccccc45)C(=O)N[C@@H](C(C)C)C(=O)N3)[C@H](C)SC[C@H](NC(=O)[C@H](CCC(=O)O)NC1=O)C(=O)NCC(=O)N[C@H]1C(=O)N[C@@H](CC(C)C)C(=O)N[C@@H](C(C)C)C(=O)N[C@@H](CS[C@H]2C)C(=O)N[C@@H](C)C(=O)N[C@H](C(=O)NCc2cc(Cl)cc(Cl)c2)CS[C@H]1C [diethanolamine salt] , what is its reported Solubility? 6.94* mg/mL

More entries:
What value of Solubility has been reported for the following molecule? CC[C@H](C)[C@@H]1NC(=O)[C@@H]2NC(=O)[C@H](CC(C)C)NC(=O)[C@H](NC(=O)[C@@H]3CSC[C@@H](N)C(=O)N[C@@H](CO)C(=O)NCC(=O)N[C@@H](Cc4c[nH]c5ccccc45)C(=O)N[C@@H](C(C)C)C(=O)N3)[C@H](C)SC[C@H](NC(=O)[C@H](CCC(=O)O)NC1=O)C(=O)NCC(=O)N[C@H]1C(=O)N[C@@H](CC(C)C)C(=O)N[C@@H](C(C)C)C(=O)N[C@@H](CS[C@H]2C)C(=O)N[C@@H](C)C(=O)N[C@H](C(=O)NCc2cc(Cl)cc(Cl)c2)CS[C@H]1C [ethanolamine salt] 10.5* mg/mL
